test system: E coli wild type; assay: MIC by broth microdilution, wild type E coli; format: cell-based; conditions: Escherichia coli, clinical isolate AG003; Table 1 (Example 3); read-out: MIC E coli AG003
Counter-ions that a name gives are not always drawn.
Catalogue of molecules with associated MIC
# unit: µg/mL | format: bare number

The cases that follow already have their MIC on record.
molecule	measurementType	recordedValue
CNC1C(OC2C(N)CC(N)C(O)C2OC2OC(CO)C(OC3OC(CN)C(O)C(O)C3N)C2O)OC(CO)C(O)C1O (centres unmarked) [Compound 115, 2′-N-Methyl-paromomycin acetate salt]	MIC	16
CCCNC1C(OC2C(N)CC(N)C(O)C2OC2OC(CO)C(OC3OC(CN)C(O)C(O)C3N)C2O)OC(CO)C(O)C1O (centres unmarked) [Compound 128, 2′-N-Propyl-paromomycin acetate salt]	MIC	16

Please look up its MIC: CNC1C(OC2C(N)CC(N)C(O)C2OC2OC(CO)C(OC3OC(CN)C(O)C(O)C3N)C2O)OC(CN)C(O)C1O (centres unmarked) [Compound 171, 2′-N-Methyl-neomycin acetate salt]
1
